Values compiled from the supplement of paper PMC10567573.

B1: MMP1 (parent)
chain: MFFKDRFYMRTNPFYPEVELNFIS

Variants of: B1
Assay info: protein stability index of a GFP-peptide fusion (GPS, HEK-293T) (PSI 1-6); higher = more stable;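 also: lentivirally expressed fusions sorted by FACS into six bins by GFP to DsRed ratio, PSI derived from sequencing read proportions per bin multiplied by bin number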
Condition context: c terminus: a fixed tail appended
Outcome label depends on protein stability index relative to 2: at/above gives Criterion met, below gives Criterion not met.

Entry sequence: MFFKDRFYMRTNPFYPEVELVFIS
Label: Criterion met
//
Entry sequence: MFFKDRFYMRTNPMYPEVELNFIS
Label: Criterion not met
//
Entry sequence: MFFKDRFYMRTNPFYPEVELNQIS
Label: Criterion not met
//
Entry sequence: MFFKNRFYMRTNPFYPEVELNFIS
Label: Criterion met
//
Entry sequence: MFFKDRFYMRTPPFYPEVELNFIS
Label: Criterion met
//
Entry sequence: MFFKDRFYMRTNPFYPEVELHFIS
Label: Criterion met
//
Entry sequence: MFFKPRFYMRTNPFYPEVELNFIS
Label: Criterion met
//
Entry sequence: MFFKDRFYMRTNPFYPEVELNFIH
Label: Criterion met
//
Entry sequence: MFFKDRFYMRTLPFYPEVELNFIS
Label: Criterion met
//
Entry sequence: MFFKDRFYMRTNPFYPAVELNFIS
Label: Criterion met
//
Entry sequence: MFFKDRFYMRTNPFYPEVELNFIG
Label: Criterion met
//
Entry sequence: MFFKDRFCMRTNPFYPEVELNFIS
Label: Criterion met
//
Entry sequence: MFVKDRFYMRTNPFYPEVELNFIS
Label: Criterion met
//
Entry sequence: MFFKDRNYMRTNPFYPEVELNFIS
Label: Criterion not met
//
Entry sequence: MFFQDRFYMRTNPFYPEVELNFIS
Label: Criterion met
//
Entry sequence: MFFKDRFYMRTNPFYKEVELNFIS
Label: Criterion met
//
Entry sequence: MFSKDRFYMRTNPFYPEVELNFIS
Label: Criterion met
//
Entry sequence: MFFKDRFYMRTNPFYPEVERNFIS
Label: Criterion met
//
Entry sequence: MFFKDRFYMRTNPFIPEVELNFIS
Label: Criterion met
//
Entry sequence: MFFKDRFYMRTNIFYPEVELNFIS
Label: Criterion met
//
Entry sequence: MFFKDREYMRTNPFYPEVELNFIS
Label: Criterion met
//
Entry sequence: MFFKDRFYMRTNQFYPEVELNFIS
Label: Criterion not met
//
Entry sequence: MFFKDRFYMRTNPFYPEVELNFIY
Label: Criterion met
//
Entry sequence: MFKKDRFYMRTNPFYPEVELNFIS
Label: Criterion not met
//
Entry sequence: MFFKDRFYMRTEPFYPEVELNFIS
Label: Criterion met
//
Entry sequence: MFFKDRFYSRTNPFYPEVELNFIS
Label: Criterion met
//
Entry sequence: MFFKDRKYMRTNPFYPEVELNFIS
Label: Criterion met
//
Entry sequence: MFFKDRFYMRTNPFYPHVELNFIS
Label: Criterion met
//
Entry sequence: MFFKDRFYMTTNPFYPEVELNFIS
Label: Criterion met
//
Entry sequence: MFFKDRFYMRTNPFYPEVSLNFIS
Label: Criterion met
//
Entry sequence: MFFKHRFYMRTNPFYPEVELNFIS
Label: Criterion met
//
Entry sequence: MFFKDRFYMRDNPFYPEVELNFIS
Label: Criterion met
//
Entry sequence: MFFKDRFYMKTNPFYPEVELNFIS
Label: Criterion met
//
Entry sequence: WFFKDRFYMRTNPFYPEVELNFIS
Label: Criterion met
//
Entry sequence: MFFKDRFYMRTNPFYPEVELNFHS
Label: Criterion not met
//
Entry sequence: MFFKDRFYMRTNPFYPEVELNFVS
Label: Criterion met
//
Entry sequence: MFFKDRFYMRTNPFYPLVELNFIS
Label: Criterion met
//
Entry sequence: MFFKDRFYMRTNPFYPEVELNFIE
Label: Criterion met
//
Entry sequence: MFFFDRFYMRTNPFYPEVELNFIS
Label: Criterion met
//
Entry sequence: MFFKDRFYMRTNPFYPEVELNFIW
Label: Criterion met
//
Entry sequence: MFFKDRFYMRTNPFYPERELNFIS
Label: Criterion not met
//
Entry sequence: MFFKDRFYMRTNPFYLEVELNFIS
Label: Criterion not met
